Data provenance: PubChem BioAssay AID1645838

Experiment: supercomplex reporter luminescence per Hoechst cell count – Hoechst nuclei count (AID 1645838);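 note: control cybrid cells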
Conditions: Cells, luminescence/Hoechst cell count ratio, measured here: cell number, Hoechst nuclei count, library stock concentration (final well concentration not given) 80 uM
Among all 2,000 compounds or so, about 100 (5%) were called active. The list comes from a sample in which actives are over-represented; it also holds close analogues and randomly drawn compounds.
REPORTED PROPERTY: cell count

* Cc1cn(-c2cc(NC(=O)c3ccc(C)c(Nc4nccc(-c5cccnc5)n4)c3)cc(C(F)(F)F)c2)cn1 | 5660
* C#Cc1cccc(Nc2ncnc3cc(OCCOC)c(OCCOC)cc23)c1 | 5220
* c1ccc(Cc2ccncc2)cc1 | 5970
* C#Cc1cccc(Nc2ncnc3cc4c(cc23)OCCOCCOCCO4)c1 | 5760
* Cc1ccc(NC(=O)c2ccc(CN3CCN(C)CC3)cc2)cc1Nc1nccc(-c2cccnc2)n1 | 4460
* Cc1c(-c2ccc(-c3ccccc3F)cc2)nc2ccc(F)cc2c1C(=O)O | 5350
* CC(C)(C)n1nc(-c2ccc(Cl)cc2)c2c(N)ncnc21 | 5420
* CC(=O)c1c(C)c2cnc(Nc3ccc(N4CCNCC4)cn3)nc2n(C2CCCC2)c1=O | 4290
* COc1cc(C(=O)NC2CCN(C)CC2)ccc1Nc1ncc2c(n1)N(C1CCCC1)C(C)CC(=O)N2C (stereo not given) | 4460
* CC(C)(C)CCN1C[C@@H]2C(CNC(=O)c3cc(Cl)cc(Cl)c3)[C@@H]2C1 (stereo not given in full) | 4670
